Target: CBP (Homo sapiens)
Construct: host or cells: A549 CBP HiBit cells
Sequence (Q92793 whole entry): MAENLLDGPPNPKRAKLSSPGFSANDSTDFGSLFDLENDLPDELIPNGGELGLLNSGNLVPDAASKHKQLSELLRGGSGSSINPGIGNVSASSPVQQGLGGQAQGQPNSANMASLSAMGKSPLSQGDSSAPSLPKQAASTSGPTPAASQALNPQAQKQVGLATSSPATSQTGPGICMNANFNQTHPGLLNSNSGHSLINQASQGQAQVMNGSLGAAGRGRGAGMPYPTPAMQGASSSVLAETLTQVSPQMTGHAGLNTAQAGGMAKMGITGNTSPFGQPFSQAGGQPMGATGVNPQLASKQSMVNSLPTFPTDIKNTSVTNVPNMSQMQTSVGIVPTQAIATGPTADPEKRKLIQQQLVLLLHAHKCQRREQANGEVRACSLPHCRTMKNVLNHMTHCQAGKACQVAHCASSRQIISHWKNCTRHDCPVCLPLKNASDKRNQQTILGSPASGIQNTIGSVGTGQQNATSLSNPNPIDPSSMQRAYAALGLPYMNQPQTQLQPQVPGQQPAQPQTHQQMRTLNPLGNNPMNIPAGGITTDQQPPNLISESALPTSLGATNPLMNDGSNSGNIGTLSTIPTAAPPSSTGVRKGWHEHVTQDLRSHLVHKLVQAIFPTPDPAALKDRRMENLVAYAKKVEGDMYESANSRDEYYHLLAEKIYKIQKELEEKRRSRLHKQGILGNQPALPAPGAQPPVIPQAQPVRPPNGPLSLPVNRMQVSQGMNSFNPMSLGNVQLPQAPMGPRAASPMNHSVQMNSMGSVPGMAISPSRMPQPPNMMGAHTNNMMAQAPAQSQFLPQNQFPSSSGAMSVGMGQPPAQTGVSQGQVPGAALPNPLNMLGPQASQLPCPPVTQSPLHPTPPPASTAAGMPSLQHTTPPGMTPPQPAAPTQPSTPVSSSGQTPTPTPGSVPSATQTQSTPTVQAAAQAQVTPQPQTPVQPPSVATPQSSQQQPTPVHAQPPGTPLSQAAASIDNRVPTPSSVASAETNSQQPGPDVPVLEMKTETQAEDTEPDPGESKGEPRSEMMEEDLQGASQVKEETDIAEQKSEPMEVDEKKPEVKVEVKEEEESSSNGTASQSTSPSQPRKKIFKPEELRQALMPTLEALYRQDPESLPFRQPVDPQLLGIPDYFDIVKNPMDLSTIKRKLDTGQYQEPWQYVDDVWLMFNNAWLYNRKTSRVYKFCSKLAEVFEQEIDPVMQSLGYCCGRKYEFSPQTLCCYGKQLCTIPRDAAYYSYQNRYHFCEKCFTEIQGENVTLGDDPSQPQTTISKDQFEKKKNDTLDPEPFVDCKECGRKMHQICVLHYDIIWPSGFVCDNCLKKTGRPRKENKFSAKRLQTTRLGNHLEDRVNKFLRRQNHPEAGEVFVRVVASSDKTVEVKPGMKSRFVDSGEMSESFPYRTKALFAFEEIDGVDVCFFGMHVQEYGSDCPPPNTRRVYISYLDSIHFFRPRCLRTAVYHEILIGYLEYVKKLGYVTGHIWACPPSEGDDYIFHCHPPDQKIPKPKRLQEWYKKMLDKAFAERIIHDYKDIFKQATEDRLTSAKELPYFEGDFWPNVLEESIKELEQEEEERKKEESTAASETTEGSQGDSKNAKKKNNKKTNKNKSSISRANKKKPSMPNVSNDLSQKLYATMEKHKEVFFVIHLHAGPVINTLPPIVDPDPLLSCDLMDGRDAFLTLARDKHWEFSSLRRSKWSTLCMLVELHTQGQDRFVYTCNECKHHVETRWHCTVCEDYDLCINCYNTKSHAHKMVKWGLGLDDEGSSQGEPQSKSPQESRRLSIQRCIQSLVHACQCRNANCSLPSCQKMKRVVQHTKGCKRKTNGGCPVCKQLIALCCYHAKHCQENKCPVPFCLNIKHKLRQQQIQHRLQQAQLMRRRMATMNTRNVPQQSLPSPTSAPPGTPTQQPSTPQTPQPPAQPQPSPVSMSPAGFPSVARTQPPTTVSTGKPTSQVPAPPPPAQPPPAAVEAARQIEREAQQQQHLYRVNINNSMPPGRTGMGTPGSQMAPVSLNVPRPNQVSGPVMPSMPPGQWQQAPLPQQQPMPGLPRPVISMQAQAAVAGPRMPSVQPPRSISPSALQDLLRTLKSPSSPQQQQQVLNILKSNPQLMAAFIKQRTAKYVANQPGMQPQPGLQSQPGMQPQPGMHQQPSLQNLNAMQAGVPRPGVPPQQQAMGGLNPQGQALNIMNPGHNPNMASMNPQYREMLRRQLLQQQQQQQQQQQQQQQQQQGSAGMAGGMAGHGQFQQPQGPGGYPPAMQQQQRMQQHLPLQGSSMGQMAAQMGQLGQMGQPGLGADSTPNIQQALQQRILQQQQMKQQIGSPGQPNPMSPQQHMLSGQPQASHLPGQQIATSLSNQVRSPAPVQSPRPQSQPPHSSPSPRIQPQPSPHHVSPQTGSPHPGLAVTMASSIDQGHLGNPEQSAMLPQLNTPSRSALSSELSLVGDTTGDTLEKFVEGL
Experiment: CBP degradation, HiBit technology in A549 CBP HiBit cells (24 h)
Assay type: cell-based
Settings: 24 hrs post treatment
Property: DC50; scope: individual compounds

{"columns": ["compound", "targetDesc", "DC50"],
 "data": [
  ["CC(C)c1cc(-c2cccc3cc(-c4ccc(C(=O)NCC#Cc5cc(OC6CCC(=O)NC6=O)nn5C)nc4)ncc23)cc2c1n(C)c(=O)n2C (stereo not drawn) [Example A29]", "CBP (Homo sapiens)", "> 1000 nM"],
  ["Cc1cc(-c2cc3c(cn2)N(c2cccc4c2cc(C)c(=O)n4C)CCO3)cnc1C(=O)NCC#Cc1ccc2occ(C3CCC(=O)NC3=O)c2c1 (stereo not drawn) [Example B83]", "CBP (Homo sapiens)", "100 to 999 nM"],
  ["CCc1cc(-c2cccc3cc(-c4ccc(C(=O)NCC#Cc5ccc6c(c5)n(C5CCC(=O)NC5=O)c(=O)n6C)nc4)ncc23)c2cc(C)c(=O)n(C)c2c1 (stereo not drawn) [Example B8]", "CBP (Homo sapiens)", "10 to 99 nM"]
]}
